Molecular target: Neu5Ac(a2-6)GalNAc
Experiment: glycan array binding signal (z-score within array); higher = stronger binding
Details: glycan notation: IUPAC condensed, linker removed
About 410 targets per protein were measured; listed, in parts, are those with the strongest signals and a random draw of the rest.
Exercise: state measured glycan array binding signal (z-score) for each of the binders provided.
Answer with a number only.

Task item: Quick one: glycan array binding signal (z-score) of CML1 (Coprinopsis cinerea) (protein) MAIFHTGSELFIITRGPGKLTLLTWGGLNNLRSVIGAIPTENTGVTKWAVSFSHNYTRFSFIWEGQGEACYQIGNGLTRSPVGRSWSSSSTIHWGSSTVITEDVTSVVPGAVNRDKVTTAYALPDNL ?
Reply: -0.331

Task item: Fill blank: measured glycan array binding signal (z-score) of the binder Langerin K299A/K313A (Homo sapiens), Q9UJ71 (protein) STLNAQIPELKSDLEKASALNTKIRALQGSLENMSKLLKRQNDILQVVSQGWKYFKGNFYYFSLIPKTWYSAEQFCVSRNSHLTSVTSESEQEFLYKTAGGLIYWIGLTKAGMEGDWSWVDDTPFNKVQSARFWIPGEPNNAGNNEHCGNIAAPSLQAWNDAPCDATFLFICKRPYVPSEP is ____.
Reply: -0.621

Task item: Given Banana lectin (Musa acuminata) (protein) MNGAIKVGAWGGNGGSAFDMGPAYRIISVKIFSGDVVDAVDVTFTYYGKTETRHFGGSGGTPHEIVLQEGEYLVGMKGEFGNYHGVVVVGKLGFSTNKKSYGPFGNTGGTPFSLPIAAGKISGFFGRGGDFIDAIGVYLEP , state its recorded glycan array binding signal (z-score).
Reply: -0.192
